testedSystem: T1, human alpha2-Antiplasmin (human, UniProt P08697 40-491)
T1 sequence: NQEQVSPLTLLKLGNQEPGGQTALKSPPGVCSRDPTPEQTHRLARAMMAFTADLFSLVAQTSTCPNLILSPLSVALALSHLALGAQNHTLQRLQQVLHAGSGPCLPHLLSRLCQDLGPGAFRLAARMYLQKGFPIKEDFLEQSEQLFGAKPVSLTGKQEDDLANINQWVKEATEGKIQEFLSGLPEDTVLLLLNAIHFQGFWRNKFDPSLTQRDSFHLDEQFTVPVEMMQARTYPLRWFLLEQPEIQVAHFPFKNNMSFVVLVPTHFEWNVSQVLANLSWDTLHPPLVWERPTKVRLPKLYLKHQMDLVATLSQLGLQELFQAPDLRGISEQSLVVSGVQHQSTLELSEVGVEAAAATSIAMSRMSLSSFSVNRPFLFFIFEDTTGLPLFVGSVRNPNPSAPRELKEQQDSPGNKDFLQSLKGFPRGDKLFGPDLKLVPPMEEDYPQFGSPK
measurementProtocol: cell-based or functional assay
Here, each record is paired with measured function blocking activity [IC50 M], 1st exp. data.
measuredAttribute: function blocking activity [IC50 M], 1st exp. (nM)

binder	obsValue
TPP-14305 hIgG1 (antibody, V domains shown) VH: EVQLLESGGGLVQPGGSLRLSCAASGFTFDDYAMSWVRQAPGKGLEWVSAIGTGGGTYYADSVKGRFTISRDNSKNTLYLQMNSLRAEDTAVYYCAREGYDSSGYYHLDYWGQGTLVTVSS VL: QSVLTQPPSASGTPGQRVTISCTGSSSNIGATYDVHWYQQLPGTAPKLLIYSNNQRPSGVPDRFSGSKSGTSASLAISGLRSEDEADYYCWAWDDSLSGWVFGGGTKLTVLG	64
TPP-14303 hIgG1 (antibody, V domains shown) VH: EVQLLESGGGLVQPGGSLRLSCAASGFTFDDYAMSWVRQAPGKGLEWVSAIGTGGGTYYADSVKGRFTISRDNSKNTLYLQMNSLRAEDTAVYYCAREDYDSSGYYHLDYWGQGTLVTVSS VL: QSVLTQPPSASGTPGQRVTISCTGSSSNIGATYDVHWYQQLPGTAPKLLIYSNNQRPSGVPDRFSGSKSGTSASLAISGLRSEDEADYYCAAWDWSLSGWVFGGGTKLTVLG	85
